Test system: Swiss-Webster male mice
Assay: Mouse Activity and Screen Test Procedure (MAST): screen test (ST)
Format: in vivo
Conditions: 0.1 mg/kg intraperitoneally, one hour postinjection
readout.type: Screen test failure (%)

Below, 2 compounds whose answers are already recorded.
{"compound": "OC[C@H]1O[C@@H](n2cnc3c(NCC4=CCc5ccccc54)ncnc32)[C@H](O)[C@@H]1O [Example 22, N^6-[1H-inden-3-yl]methyladenosine]", "target.entity": "Swiss-Webster male mice", "assay.result": 0}
{"compound": "OC[C@H]1O[C@@H](n2cnc3c(NC4CCCc5ccccc54)ncnc32)[C@H](O)[C@@H]1O (stereo partly drawn) [Example 2, (R)-N^6-[1-Tetralinyl]-adenosine]", "target.entity": "Swiss-Webster male mice", "assay.result": 0}

(A) CC1CCc2ccccc2C1Nc1ncnc2c1ncn2[C@@H]1O[C@H](CO)[C@@H](O)[C@H]1O (stereo partly shown) [Example 4, N^6-[1-(2-Methyl)-tetralinyl]-adenosine]
(B) OC[C@H]1O[C@H](n2cnc3c(NC4CCCc5ccccc54)ncnc32)[C@H](O)[C@@H]1O (stereo partly drawn) [Example 3, (S)-N^6-[1-Tetralinyl]-adenosine]
*Q* Endpoint returns the identifier whose Screen test failure is numerically larger, either A or B . State the label of the item chosen.
*A* B
(B: 11%, A: 0%)

###

Test system: Swiss-Webster male mice
Assay: Mouse Activity and Screen Test Procedure (MAST): locomotor activity in actophotometer
Assay type: in vivo
Conditions: 3 mg/kg intraperitoneally, one hour prior to testing
readout.type: Inhibition of mouse locomotor activity (%)
Express the result in % but write the number alone.

Below, 7 compounds whose answers are already recorded.
{"compound": "COc1ccc2c(c1)C(Nc1ncnc3c1ncn3[C@H]1O[C@H](CO)[C@@H](O)[C@H]1O)CCC2 (some centres unmarked) [Example 9]", "result.unit": "%", "assay.result": "−35"}
{"compound": "COc1ccc2c(c1)C(Nc1ncnc3c1ncn3[C@@H]1O[C@H](CO)[C@@H](O)[C@H]1O)CCC2 (single isomer, unassigned) [Example 8]", "result.unit": "%", "assay.result": 88}
{"compound": "Cc1cc(C)c2c(c1)C(Nc1ncnc3c1ncn3[C@@H]1O[C@H](CO)[C@@H](O)[C@H]1O)CCC2 (some centres unmarked) [Example 18]", "result.unit": "%", "assay.result": 73}
{"compound": "OC[C@H]1O[C@@H](n2cnc3c(NCC4CCCCc5ccccc54)ncnc32)[C@H](O)[C@@H]1O (some centres unmarked) [Example 28, N^6-(1-benzocycloheptyl)methyladenosine]", "result.unit": "%", "assay.result": 35}
{"compound": "OC[C@H]1O[C@@H](n2cnc3c(NC4CCCc5ccc(O)cc54)ncnc32)[C@H](O)[C@@H]1O (some centres unmarked) [Example 17]", "result.unit": "%", "assay.result": 44}
{"compound": "OC[C@H]1O[C@@H](n2cnc3c(NCC4(O)CCc5ccccc54)ncnc32)[C@H](O)[C@@H]1O (some centres unmarked) [Example 25]", "result.unit": "%", "assay.result": "−14"}
{"compound": "OC[C@H]1O[C@@H](n2cnc3c(NC4CCCc5ccccc54)ncnc32)C(O)[C@@H]1O (stereo in doubt) [Example 1, (R,S)-N^6-[1-Tetralinyl]-adenosine]", "result.unit": "%", "assay.result": 93}

// switching to the query compound
*Q* Please report the recorded Inhibition of mouse locomotor activity for OC[C@H]1O[C@@H](n2cnc3c(NCC4=CCc5ccccc54)ncnc32)[C@H](O)[C@@H]1O [Example 22, N^6-[1H-inden-3-yl]methyladenosine] .
*A* 76

###

System: Swiss-Webster male mice
Test: Mouse Activity and Screen Test Procedure (MAST): locomotor activity in actophotometer
Type: in vivo
Conditions: 3 mg/kg intraperitoneally, one hour prior to testing
readout.type: Inhibition of mouse locomotor activity (%)
Express the result in % but write the number alone.

{"molecule": "OC[C@H]1O[C@@H](n2cnc3c(NC4CCCc5ccccc54)ncnc32)[C@H](O)[C@@H]1O (stereo partly drawn) [Example 2, (R)-N^6-[1-Tetralinyl]-adenosine]", "Inhibition of mouse locomotor activity (%)": 95}
{"molecule": "COc1ccc2c(c1)C(Nc1ncnc3c1ncn3[C@@H]1O[C@H](CO)[C@@H](O)[C@H]1O)CCC2 (single isomer, unassigned) [Example 5, N6-[1-(7-Methoxy)-tetralinyl]-adenosine]", "Inhibition of mouse locomotor activity (%)": 82}
{"molecule": "CC(=O)Oc1ccccc1C(=O)OC[C@H]1O[C@@H](n2cnc3c(NC4CCCc5ccccc54)ncnc32)[C@H](O)[C@@H]1O (stereo partly drawn) [Example 14]", "Inhibition of mouse locomotor activity (%)": 69}

*Q* Please report the recorded Inhibition of mouse locomotor activity for COc1cccc2c1CCC[C@@H]2Nc1ncnc2c1ncn2[C@@H]1O[C@H](CO)[C@@H](O)[C@H]1O [Example 10] .
*A* 88

*Q* Proceed to CCOC(=O)OC[C@H]1O[C@@H](n2cnc3c(NC4CCCc5ccccc54)ncnc32)[C@H](OC(=O)OCC)[C@@H]1OC(=O)OCC (stereo partly drawn) [Example 19]
*A* 57

*Q* Proceed to COc1ccc2c(c1)CCCC2Nc1ncnc2c1ncn2[C@@H]1O[C@H](CO)[C@@H](O)[C@H]1O (stereo partly drawn) [Example 6, N^6-[1-(6-Methoxy)-tetralinyl]-adenosine]
*A* 3

*Q* Proceed to CC(=O)OC[C@H]1O[C@@H](n2cnc3c(NC4CCCc5ccccc54)ncnc32)[C@H](O)[C@@H]1O (stereo partly drawn) [Example 15, N^6-(1-tetralinyl)-5'-acetyl-adenosine]
*A* 96

*Q* Proceed to OC[C@H]1O[C@@H](n2cnc3c(NCC4CCc5ccccc54)ncnc32)[C@H](O)[C@@H]1O (stereo partly drawn) [Example 21]
*A* 61

*Q* Proceed to OC[C@H]1O[C@@H](n2cnc3c(NCC4(O)CCCCc5ccccc54)ncnc32)[C@H](O)[C@@H]1O (stereo partly drawn) [Example 27]
*A* 1

*Q* Proceed to OC[C@H]1O[C@@H](n2cnc3c(NC4CCCc5c(O)cccc54)ncnc32)[C@H](O)[C@@H]1O (stereo partly drawn) [Example 16, N^6-[1-(5-hydroxy)-tetralinyl]-adenosine]
*A* −13

*Q* Proceed to CC1(C)O[C@@H]2[C@H](O1)[C@@H](CO)O[C@H]2n1cnc2c(NC3CCCc4ccccc43)ncnc21 (stereo partly drawn) [Example 12]
*A* 3

*Q* Proceed to OC[C@H]1O[C@@H](n2cnc3c(NCC4=CCCCc5ccccc54)ncnc32)[C@H](O)[C@@H]1O [Example 26]
*A* 50

###

Listed next: entries and their corresponding Inhibition of mouse locomotor activity.
Test system: Swiss-Webster male mice
Assay: Mouse Activity and Screen Test Procedure (MAST): locomotor activity in actophotometer
Type: in vivo
Settings: 3 mg/kg intraperitoneally, one hour prior to testing
Express the result in % but write the number alone.

{"compound": "COc1cccc2c1CCCC2Nc1ncnc2c1ncn2[C@@H]1O[C@H](CO)[C@@H](O)[C@H]1O (stereo partly shown)", "Inhibition of mouse locomotor activity (%)": 91}

*Q* Please report the recorded Inhibition of mouse locomotor activity for OC[C@H]1O[C@H](n2cnc3c(NC4CCCc5ccccc54)ncnc32)[C@H](O)[C@@H]1O (stereo partly drawn) [Example 3, (S)-N^6-[1-Tetralinyl]-adenosine] .
*A* 69

*Q* Proceed to OC[C@H]1O[C@@H](n2cnc3c(NCC4(O)CCCc5ccccc54)ncnc32)[C@H](O)[C@@H]1O (stereo partly shown)
*A* 19

*Q* Proceed to OC[C@H]1O[C@@H](n2cnc3c(NCC4=CCCc5ccccc54)ncnc32)[C@H](O)[C@@H]1O
*A* 67

###

System: Swiss-Webster male mice
Experiment: Mouse Activity and Screen Test Procedure (MAST): screen test (ST)
Assay type: in vivo
Settings: 0.3 mg/kg intraperitoneally, one hour postinjection
readout.type: Screen test failure (%)

{"molecule": "OC[C@H]1O[C@@H](n2cnc3c(NCC4=CCc5ccccc54)ncnc32)[C@H](O)[C@@H]1O [Example 22, N^6-[1H-inden-3-yl]methyladenosine]", "assay.result": 11}
{"molecule": "CC(=O)OC[C@H]1O[C@@H](n2cnc3c(NC4CCCc5ccccc54)ncnc32)[C@H](O)[C@@H]1O (stereo partly drawn) [Example 15, N^6-(1-tetralinyl)-5'-acetyl-adenosine]", "assay.result": 11}
{"molecule": "OC[C@H]1O[C@@H](n2cnc3c(NCC4CCc5ccccc54)ncnc32)[C@H](O)[C@@H]1O (stereo partly drawn) [Example 21]", "assay.result": 0}

###

System: Swiss-Webster male mice
Assay: Mouse Activity and Screen Test Procedure (MAST): screen test (ST)
Format: in vivo
Settings: 30 mg/kg intraperitoneally, one hour postinjection
readout.type: Screen test failure (%)

{"compound": "OC[C@H]1O[C@@H](n2cnc3c(NC4CCCc5ccc(O)cc54)ncnc32)[C@H](O)[C@@H]1O (stereo partly drawn) [Example 17]", "Screen test failure / %": 22}

(1) OC[C@H]1O[C@@H](n2cnc3c(NCC4(O)CCCc5ccccc54)ncnc32)[C@H](O)[C@@H]1O (stereo partly drawn) [Example 23]
(2) COc1ccc2c(c1)C(Nc1ncnc3c1ncn3[C@@H]1O[C@H](CO)[C@@H](O)[C@H]1O)CCC2 (single isomer, unassigned) [Example 8]
*Q* Endpoint returns the identifier whose Screen test failure is numerically larger, either 1 or 2 . State the label of the item chosen.
*A* 2
(2: 65%, 1: 22%)
